measurement_target: recombinant human ICAM1 (human, UniProt P05362 28-480, limits assumed)
Sequence (P05362 28-480 limits assumed): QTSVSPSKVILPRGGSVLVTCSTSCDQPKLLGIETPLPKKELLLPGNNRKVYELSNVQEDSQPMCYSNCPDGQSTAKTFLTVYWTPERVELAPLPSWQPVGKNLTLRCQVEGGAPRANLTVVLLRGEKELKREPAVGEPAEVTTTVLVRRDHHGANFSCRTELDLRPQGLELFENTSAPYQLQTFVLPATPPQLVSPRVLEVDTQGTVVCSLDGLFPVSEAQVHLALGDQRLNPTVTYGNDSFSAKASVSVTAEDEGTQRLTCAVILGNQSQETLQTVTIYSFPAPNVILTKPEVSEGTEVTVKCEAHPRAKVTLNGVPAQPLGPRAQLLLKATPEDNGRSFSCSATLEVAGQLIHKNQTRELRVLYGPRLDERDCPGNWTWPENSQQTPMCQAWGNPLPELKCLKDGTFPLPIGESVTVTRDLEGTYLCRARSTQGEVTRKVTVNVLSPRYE
experiment_notes: SPR (Biacore 8K), antibody captured, antigen injected
The entries below come with measured log10 Kd values attached.
Scale type: logarithmic (base 10). Underlying Kd unit: nM.

Q: State the recorded log10 Kd for this entry: 8B12 (antibody, human IgG1, kappa, V domains shown, Rabbit-human chimeric anti-ICAM1: rabbit VH and VL on human IgG1 and kappa constant regions) VH: QSVEESGGGLVKPGGTLTLTCTVSGFSLSTHAMGWVRQAPGKGLEYIGIIGSSDRTYYASWAKGRFTISKTSTTVDLKITSPTTEDTATYFCVRDPYDSFDDGYRLWGPGTLVTVSS VL: AYDMTQTPASVEVAVGGTVTIKCQASQSIYSYLSWYQQKPGQRPKFLIYDASKVASGVPSRFKGSGSGTEFTLTISAVQSDDAATYYCQQAYSSSNVDNAFGGGTEVMVKR
A: -0.59

Q: State the recorded log10 Kd for this entry: 11F2 (antibody, human IgG1, kappa, V domains shown, Rabbit-human chimeric anti-ICAM1: rabbit VH and VL on human IgG1 and kappa constant regions) VH: QSVEESGGGLVKPGGTLTLTCTVSGFSLSSHAMGWVRQAPGKGLEYIGIIGSSDRTYYASWAKGRFTISKTSTTVDLKITSPTTEDTATYFCVRDPYDSYDDGYRLWGPGTLVTVSS VL: AYDMTQTPASVEVAVGGTVTIKCQASQSIYRYLSWYQKKPGQRPKFLIYDASKLASGVPSRFEGSGSGTEFTLTISGAQSDDAATYYCQQAYSSGSIDNAFGGGTEVVVKR
A: -0.54

Q: State the recorded log10 Kd for this entry: 11G7 (antibody, human IgG1, kappa, V domains shown, Rabbit-human chimeric anti-ICAM1: rabbit VH and VL on human IgG1 and kappa constant regions) VH: QSVEESGGRLVTPGTPLTLTCTVSGFSLSDYYMSWVRQAPGKGLEWIGIISDSGSTYYASWAKGRFTISKTSSTTVDLKITSPTTEDTATYFCARDWSYDSSSGYYYYDMDLWGPGTLVTVSA VL: AYDMTQTPASVEVAVGGTVTIKCQASQSINSWLSWFHQKPGQPPKRLIYKASTLASGVSSRFKGSGSGTQFTLTISGVESADAATYYCQQGYSRSDGEHVFGGGTEVVVKR
A: 0.42
